Each item that follows carries a reported GI50.
# Test system: Ba/F3-parental cells
# Test Name: Anti-proliferation assay (CellTiter Glo) on Ba/F3-parental
# Assay type: cell-based
# Measurement Context: Mus musculus, BaF3; 72 h treatment; with 10 ng/ml IL-3; average with SD (n = 3, duplicate)
# Experimental: Ba/F3-parental, OCI-AML3, U397 cells were purchased from DSMZ. MDA-MB-231, HCT-116, AsPC-1, H358, HT-29, SW480, and DU-145 cells were obtained from KCLB. MDA-MB-468 cells were obtained from ATCC. All cells were maintained in RPMI with 10% FBS and antibiotics. Cells were grown in a humidified 5% CO2 incubator at 37°C. Ba/F3-parental cells were grown in the presence of 10 ng/ml IL-3. […]
Measure: GI50 (nM)

• CCN1CCN(c2ccc(Nc3ncc4c(n3)N(C)C(=O)N(c3cc(NC(=O)c5cccc(C(F)(F)F)c5)ccc3C)C4)c(C(F)(F)F)c2)CC1 = 3920
• Cc1ccc(NC(=O)c2cccc(C(F)(F)F)c2)cc1N1Cc2cnc(Nc3cnn(C)c3)nc2N(C)C1=O = 630
• Cc1ccc(NC(=O)c2cccc(C(F)(F)F)c2)cc1N1Cc2cnc(Nc3cnn(C4CCN(S(C)(=O)=O)CC4)c3)nc2N(C)C1=O = 1920
• Cc1ccc(NC(=O)c2cccc(C(F)(F)F)c2)cc1N1Cc2cnc(Nc3ccn(C)n3)nc2N(C)C1=O = 1160
• CCN1CCN(c2cccc(Nc3ncc4c(n3)N(C)C(=O)N(c3cc(NC(=O)c5cccc(C(F)(F)F)c5)ccc3C)C4)c2)CC1 = 2020
• COc1cc(N2CCOCC2)ccc1Nc1ncc2c(n1)N(C)C(=O)N(c1cc(NC(=O)c3cccc(C(F)(F)F)c3)ccc1C)C2 = 3780
• CCN1CCN(c2ccc(Nc3ncc4c(n3)N(C)C(=O)N(c3cc(NC(=O)c5cccc(C(F)(F)F)c5)ccc3C)C4)cc2)CC1 = 857
• Cc1ccc(NC(=O)c2cccc(C(F)(F)F)c2)cc1N1Cc2cnc(Nc3ccc(N4CCC(O)CC4)cc3)nc2N(C)C1=O = 827
• Cc1ccc(NC(=O)c2cccc(C(F)(F)F)c2)cc1N1Cc2cnc(Nc3ccc(N4CCOCC4)cc3)nc2N(C)C1=O = 1060
• Cc1ccc(Nc2ncc3c(n2)N(C)C(=O)N(c2cc(NC(=O)c4cccc(C(F)(F)F)c4)ccc2C)C3)c(C)n1 = 1470
• CCN1CCC(n2cc(Nc3ncc4c(n3)N(C)C(=O)N(c3cc(NC(=O)c5cccc(C(F)(F)F)c5)ccc3C)C4)cn2)CC1 = 889
• Cc1ccc(NC(=O)c2cccc(C(F)(F)F)c2)cc1N1Cc2cnc(NCCCN3CCOCC3)nc2N(C)C1=O = 5730
• COCCn1cc(Nc2ncc3c(n2)N(C)C(=O)N(c2cc(NC(=O)c4cccc(C(F)(F)F)c4)ccc2C)C3)cn1 = 1160

src = paper PMC8695447
